Values were extracted from paper PMC6178183.

- Experimental Protocol: Stability of analytes in rat plasma QC samples under storage conditions
- Format: in vitro ADME
- Recorded Conditions: rat plasma, n=6; low QC: spiked 20 ng/mL glycyrrhizic acid; 10 liquiritin; 2 emodin, gallic acid, ononin, schisandrin, stilbene glycoside; 1 isoliquiritigenin, liquiritigenin, rhein, verbascoside
# if value of Measured Concentration, room temperature for 6 h reaches 2 ng/mL, tag Condition met; if it stays below, tag Condition not met

Compound	Classification
O=C1C[C@@H](c2ccc(O)cc2)Oc2cc(O)ccc21 [liquiritigenin]	Condition not met
O=C(O)c1cc(O)c2c(c1)C(=O)c1cccc(O)c1C2=O [rhein]	Condition not met
O=C1C[C@@H](c2ccc(O[C@@H]3O[C@H](CO)[C@@H](O)[C@H](O)[C@H]3O)cc2)Oc2cc(O)ccc21 [liquiritin]	Condition met
OC[C@H]1O[C@@H](Oc2c(O)cc(O)cc2/C=C/c2ccc(O)cc2)[C@H](O)[C@@H](O)[C@@H]1O [stilbene glycoside]	Condition not met
C[C@@H]1O[C@@H](O[C@@H]2[C@@H](O)[C@H](OCCc3ccc(O)c(O)c3)O[C@H](CO)[C@H]2OC(=O)/C=C/c2ccc(O)c(O)c2)[C@H](O)[C@H](O)[C@H]1O [verbascoside]	Condition not met
CC1(C)[C@@H](O[C@H]2O[C@H](C(=O)O)[C@@H](O)[C@H](O)[C@H]2O[C@@H]2O[C@H](C(=O)O)[C@@H](O)[C@H](O)[C@H]2O)CC[C@]2(C)[C@H]3C(=O)C=C4[C@@H]5C[C@@](C)(C(=O)O)CC[C@]5(C)CC[C@@]4(C)[C@]3(C)CC[C@@H]12 [glycyrrhizic acid]	Condition met

Now take the following compound into account.
Asked: # bool: Measured Concentration, room temperature for 6 h of O=C(/C=C/c1ccc(O)cc1)c1ccc(O)cc1O [isoliquiritigenin] >= 2 ng/mL
Given back: Condition not met
